# experiment.notes: LEV blocking and displacement PET scans, Lassen plot
# Type: in vivo, rhesus monkeys (Macaca mulatta)
# condition.context: male, rhesus monkey, brain (thalamus), intravenous; Thalamus; LEV 30 mg/kg i.v.; read-out: VT (blocking)
test.readout: Kp

* Cc1nccn1CN1C[C@@H](c2cc(F)cc([18F])c2)CC1=O [[^18F]SDM-16] | 8.2

---

# Tested on: SV2A
# experiment.notes: Brain PET imaging with 1TC kinetic modeling
# condition.context: Cerebellum
test.readout: K1

• [11CH3]c1cnccc1CN1C[C@@H](c2cc(F)c(F)c(F)c2)CC1=O [[^11C]UCB-J] = 0.81 ± 0.16 mL/cm^3 per min
• [11CH3]n1cncc1CN1C[C@@H](c2cc(F)cc(F)c2)CC1=O [[^11C]UCB-A] = 0.17 ± 0.03 mL/cm^3 per min
• Cc1nccn1CN1C[C@@H](c2cc(F)cc([18F])c2)CC1=O [[^18F]SDM-16] = 0.18 ± 0.02 mL/cm^3 per min
• Cc1cnccc1CN1C[C@@H](c2cc(F)cc([18F])c2)CC1=O [[^18F]SynVesT-1] = 0.88 ± 0.41 mL/cm^3 per min

---

# experiment.notes: Brain PET imaging with 1TC kinetic modeling
# condition.context: both, rhesus monkey, brain (putamen), intravenous
test.readout: Kp

- Cc1nccn1CN1C[C@@H](c2cc(F)cc([18F])c2)CC1=O [[^18F]SDM-16]: 26

---

K1 values for the molecules below.
# Tested on: SV2A
# experiment.notes: Brain PET imaging with 1TC kinetic modeling
# condition.context: Frontal cortex
test.readout: K1 (mL/cm^3 per min)

• [11CH3]c1cnccc1CN1C[C@@H](c2cc(F)c(F)c(F)c2)CC1=O [[^11C]UCB-J] = 0.66
• Cc1cnccc1CN1C[C@@H](c2cc(F)cc([18F])c2)CC1=O [[^18F]SynVesT-1] = 0.79
• Cc1nccn1CN1C[C@@H](c2cc(F)cc([18F])c2)CC1=O [[^18F]SDM-16] = 0.14
• [11CH3]n1cncc1CN1C[C@@H](c2cc(F)cc(F)c2)CC1=O [[^11C]UCB-A] = 0.15

---

# Tested on: SV2A
# experiment.notes: Brain PET imaging with 1TC kinetic modeling
# condition.context: Occipital cortex
test.readout: K1

- Cc1cnccc1CN1C[C@@H](c2cc(F)cc([18F])c2)CC1=O [[^18F]SynVesT-1]: 0.88 ± 0.47 mL/cm^3 per min
- Cc1nccn1CN1C[C@@H](c2cc(F)cc([18F])c2)CC1=O [[^18F]SDM-16]: 0.18 ± 0.02 mL/cm^3 per min
- [11CH3]c1cnccc1CN1C[C@@H](c2cc(F)c(F)c(F)c2)CC1=O [[^11C]UCB-J]: 0.81 ± 0.21 mL/cm^3 per min
- [11CH3]n1cncc1CN1C[C@@H](c2cc(F)cc(F)c2)CC1=O [[^11C]UCB-A]: 0.19 ± 0.03 mL/cm^3 per min

---

Examples of molecules with documented parent fraction in plasma follow.
# experiment.notes: Plasma radiometabolite analysis during PET scans
# Assay type: in vivo, rhesus monkeys
# condition.context: 30 min p.i.
# Source text: Arterial blood samples were collected during the PET scans to measure the radioactivity in plasma for generation of the metabolite-corrected arterial plasma input function. […] Activity in the whole blood, plasma, filtrated plasma-urea mix, filters, and HPLC fractions were counted with automatic gamma well-counter (Wizard 2, PerkinElmer). The sample recovery rate, extraction efficiency, and HPLC fraction recovery were monitored. […]
test.readout: parent fraction in plasma (%)

- Cc1nccn1CN1C[C@@H](c2cc(F)cc([18F])c2)CC1=O [[^18F]SDM-16]: 89
- [11CH3]n1cncc1CN1C[C@@H](c2cc(F)cc(F)c2)CC1=O [[^11C]UCB-A]: 70
- [11CH3]c1cnccc1CN1C[C@@H](c2cc(F)c(F)c(F)c2)CC1=O [[^11C]UCB-J]: 40
- Cc1cnccc1CN1C[C@@H](c2cc(F)cc([18F])c2)CC1=O [[^18F]SynVesT-1]: 42

---

# experiment.notes: Brain PET imaging with 1TC kinetic modeling
# condition.context: rhesus monkey, in vivo
test.readout: fraction unbound

* Cc1cnccc1CN1C[C@@H](c2cccc([18F])c2)CC1=O [[^18F]SynVesT-2] | 0.195
* Cc1cnccc1CN1C[C@@H](c2cc(F)cc([18F])c2)CC1=O [[^18F]SynVesT-1] | 0.101

---

# Tested on: SV2A
# experiment.notes: Brain PET imaging with 1TC kinetic modeling
# condition.context: Mean ± SD over brain regions
Each entry below carries its recorded K1.
test.readout: K1 (mL/cm^3 per min)

* [11CH3]c1cnccc1CN1C[C@@H](c2cc(F)c(F)c(F)c2)CC1=O [[^11C]UCB-J] | 0.72
* Cc1cnccc1CN1C[C@@H](c2cc(F)cc([18F])c2)CC1=O [[^18F]SynVesT-1] | 0.91
* [11CH3]n1cncc1CN1C[C@@H](c2cc(F)cc(F)c2)CC1=O [[^11C]UCB-A] | 0.14
* Cc1nccn1CN1C[C@@H](c2cc(F)cc([18F])c2)CC1=O [[^18F]SDM-16] | 0.14

---

Property: K1; scope: individual compounds
# Tested on: SV2A
# experiment.notes: Brain PET imaging with 1TC kinetic modeling
# condition.context: Brainstem
test.readout: K1 (mL/cm^3 per min)

* [11CH3]n1cncc1CN1C[C@@H](c2cc(F)cc(F)c2)CC1=O [[^11C]UCB-A] | 0.15
* Cc1nccn1CN1C[C@@H](c2cc(F)cc([18F])c2)CC1=O [[^18F]SDM-16] | 0.14
* [11CH3]c1cnccc1CN1C[C@@H](c2cc(F)c(F)c(F)c2)CC1=O [[^11C]UCB-J] | 0.89
* Cc1cnccc1CN1C[C@@H](c2cc(F)cc([18F])c2)CC1=O [[^18F]SynVesT-1] | 1.37

---

# experiment.notes: Plasma free fraction (fp) by ultrafiltration
# Format: in vitro ADME, rhesus monkey
# condition.context: monkey, plasma (separated from spiked whole blood)
test.readout: fraction unbound at 5 min

* Cc1nccn1CN1C[C@@H](c2cc(F)cc([18F])c2)CC1=O [[^18F]SDM-16] | 0.69
* [11CH3]n1cncc1CN1C[C@@H](c2cc(F)cc(F)c2)CC1=O [[^11C]UCB-A] | 0.75
* [11CH3]c1cnccc1CN1C[C@@H](c2cc(F)c(F)c(F)c2)CC1=O [[^11C]UCB-J] | 0.46
